Tested on: TK-10
experiment_notes: NCI tumour cell line growth inhibition, 48 h
Active and inactive are the calls of the source. Cut-off read from the data, not from the text of the source: active = GI50 up to about 1.1 µM and inactive = higher.

# compound, GI50
data = [
    ("CC(=O)OCC1OC(n2c(=S)n(-c3ccccc3)c(=S)c3ccccc32)C(OC(C)=O)C(OC(C)=O)C1OC(C)=O (stereo not drawn)", "16.9 µM (inactive)"),
    ("Cn1ncc(=S)[nH]c1=S", "> 100 µM (inactive)"),
    ("O=C(O)C[n+]1cn(NC(=O)Cc2ccccc2)cn1", "> 10 µM (inactive)"),
    ("O/N=C/[C@H]1COC2(CCCCC2)O1", "> 100 µM (inactive)"),
    ("CC(O)CCCCC(O)CCC[C@H](O)[C@H]1CCC([C@H]2CCC([C@@H](O)CCCCCCCCCCCCC3=C[C@H](C)OC3=O)O2)O1 (stereo partly drawn)", "9.48 µM (inactive)"),
    ("Cn1c2c(c3ccccc31)CC(=O)N1CCCCC1C21OCCO1 (stereo not drawn)", "> 100 µM (inactive)"),
    ("O=c1[nH]nc(-c2cccc([N+](=O)[O-])c2)[nH]1", "> 100 µM (inactive)"),
    ("CCNC(=O)Nc1cccc(C)n1", "> 100 µM (inactive)"),
    ("COc1ccc(CC2Cc3ccccc3CC(=O)N2)cc1OC (stereo not drawn)", "> 100 µM (inactive)"),
    ("COc1nc(C)nc2sc3c(c12)CCCC3", "> 100 µM (inactive)"),
    ("O=S(O)c1cc(Cl)cc(Cl)c1O", "> 100 µM (inactive)"),
    ("O=S(=O)(/C=C/c1ccc(Cl)cc1Cl)Cc1ccccc1CS(=O)(=O)/C=C/c1ccc(Cl)cc1Cl", "> 100 µM (inactive)"),
    ("COc1ccc(N2N=NN(C(C)C)/C2=C(/Cl)c2nnnn2-c2ccc(OC)cc2)cc1", "16.2 µM (inactive)"),
    ("Cc1cccc2c(N)c3cccc(C(=O)NCC[N+](C)(C)[O-])c3nc12", "21.8 µM (inactive)"),
    ("O=S(O)c1cc(Cl)cc(Cl)c1OCc1ccccc1", "> 100 µM (inactive)"),
    ("O=C(O)/C(Cl)=C(/Cl)C(=O)Nc1cccc(Cl)c1", "18.1 µM (inactive)"),
    ("CC(C)C(=O)/C=C/S/C=C/C(=O)C(C)C", "> 100 µM (inactive)"),
    ("c1csc(-c2ccc(-c3ccc(-c4ccc(-c5cccs5)s4)s3)s2)c1", "> 100 µM (inactive)"),
    ("Cc1ccc(NCCN(C)C)c2c(=O)c3cc(O)ccc3sc12", "17.6 µM (inactive)"),
    ("CCOC(=O)N1CCC2C(=C(C)C(C)C3=C2C(=O)c2ccccc2C3=O)C1 (stereo not drawn)", "> 10 µM (inactive)"),
    ("CCOC(=O)C1=C(C)OC(=O)[C@@]2(OC)C=C(Cl)[C@@]12C", "> 100 µM (inactive)"),
    ("COC(=O)C12C3C4C1C1C2C3C41C(=O)OC(C)(C)C (stereo not drawn)", "> 100 µM (inactive)"),
    ("COC(=O)C(=O)C(C(=O)C(=O)Nc1cccc(C(C)=O)c1)c1nc2ccccc2nc1O (stereo not drawn)", "> 100 µM (inactive)"),
]
